# testedSystem: Cyclin D1 and cyclin-dependent kinase 4 (CDK4) (Homo sapiens)
# Sequence (P11802 whole entry, species assumed): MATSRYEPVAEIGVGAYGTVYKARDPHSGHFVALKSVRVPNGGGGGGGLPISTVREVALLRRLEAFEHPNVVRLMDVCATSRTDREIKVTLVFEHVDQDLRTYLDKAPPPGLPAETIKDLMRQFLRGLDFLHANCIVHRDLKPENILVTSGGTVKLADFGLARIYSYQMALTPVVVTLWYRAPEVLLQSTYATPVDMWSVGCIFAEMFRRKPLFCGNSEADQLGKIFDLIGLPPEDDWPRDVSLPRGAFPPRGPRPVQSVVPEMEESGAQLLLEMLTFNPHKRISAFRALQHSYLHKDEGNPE
# Sequence (P24385 whole entry partner, species assumed): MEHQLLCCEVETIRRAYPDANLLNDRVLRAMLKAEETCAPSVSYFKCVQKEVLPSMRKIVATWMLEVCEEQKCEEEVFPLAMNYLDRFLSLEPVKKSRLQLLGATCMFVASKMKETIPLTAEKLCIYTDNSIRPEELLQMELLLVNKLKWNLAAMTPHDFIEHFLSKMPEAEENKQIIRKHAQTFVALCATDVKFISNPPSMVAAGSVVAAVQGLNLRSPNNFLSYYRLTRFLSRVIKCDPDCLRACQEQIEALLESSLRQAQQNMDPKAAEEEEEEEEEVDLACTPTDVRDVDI
# testName: CDK4 substrate phosphorylation assay (phosphorylation of GST-Rb protein, [33P]-ATP)
# Type: biochemical
# appliedConditions: read-out: CDK4 inhibition
readoutKind: IC50

Query block: # lookup: IC50 of O=[N+]([O-])c1cccc(Nc2nccc(-c3cnn4ncccc34)n2)c1 [Example 10]
Result block: < 100 nM

Query block: Same read-out for Clc1ccc(Nc2nccc(-c3cnn4ncccc34)n2)cc1 [Example 5] ?
Result block: < 100 nM

Query block: Follow-up item: Cc1cc(Nc2nccc(-c3cnn4ncccc34)n2)ccc1N1CCN(C)CC1 [Example 25]
Result block: < 100 nM

Query block: Item: FC(F)(F)c1cccc(Nc2nccc(-c3cnn4ncccc34)n2)c1 [Example 9]
Result block: < 100 nM

Query block: For c1cc(Nc2nccc(-c3cnn4ncccc34)n2)cc(-c2cnco2)c1 [Example 14] then?
Result block: < 100 nM

Query block: Now give it for COc1ccc2c(-c3ccnc(NC4CC4)n3)cnn2n1 [Example 36] too.
Result block: < 1000 nM

Query block: Consider next the compound c1cnn2ncc(-c3ccnc(NC4CC4)n3)c2c1 [Example 1] in the same way.
Result block: < 100 nM

Query block: Then what about the compound CN1CCN(c2ccc(Nc3nccc(-c4cnn5ncccc45)n3)cc2Cl)CC1 [Example 23] ?
Result block: < 100 nM

Query block: Same thing, different compound: N#Cc1cccc(Nc2nccc(-c3cnn4ncccc34)n2)c1 [Example 7]
Result block: < 100 nM

Query block: Try this compound too: O=C1CCCN1CCCNc1nccc(-c2cnn3ncccc23)n1 [Example 22]
Result block: < 100 nM

Query block: Cool, now CN(C)c1ccc(Nc2nccc(-c3cnn4nc(N5CCOCC5)ccc34)n2)cc1 [Example 53]
Result block: < 100 nM

Query block: // repeat for Clc1ccccc1-c1ccc2c(-c3ccnc(NC4CC4)n3)cnn2n1 [Example 42] and report
Result block: < 1000 nM

----------
Kindly supply the reported IC50 values for the records listed here.
# testedSystem: CDK2 (Homo sapiens, UniProt P24941)

Query block: Look up IC50: N#Cc1cccc(Nc2nccc(-c3cnn4ncccc34)n2)c1
Result block: < 0.1 µM

Query block: Same question, Clc1ccccc1-c1ccc2c(-c3ccnc(NC4CC4)n3)cnn2n1 this time
Result block: < 1 µM

Query block: Would you mind doing FC(F)(F)c1cccc(Nc2nccc(-c3cnn4ncccc34)n2)c1 as well?
Result block: < 0.1 µM

Query block: Also check Clc1ccc(Nc2nccc(-c3cnn4ncccc34)n2)cc1
Result block: < 0.1 µM

Query block: Here is the next compound: CN(C)c1ccc(Nc2nccc(-c3cnn4nc(N5CCOCC5)ccc34)n2)cc1
Result block: < 1 µM

Query block: For Cc1cc(Nc2nccc(-c3cnn4ncccc34)n2)ccc1N1CCN(C)CC1 then?
Result block: < 0.1 µM
